- assay_text: melting temperature; melt of duplexes
- test_settings: sodium 0.0675 M; strand 1 µM
Yes if Tm is below 50 °C. No if not; exact matches included in No.

Example entries and their recorded answers appear below.
> print(dat)
                                  substance  class.assignment
1  CGACGTGCTGCATGTGCTG+CAGCACATTGTGCACGTCG ((((((((...((((((((+))))))))...))))))))               Yes
2  CGACGTGCATCATGTGCTG+CAGCACATGAGGCACGTCG ((((((((.((((((((((+)))))))))).))))))))                No
3  CGACGTGCTTCATGTGCTG+CAGCACATGGCGCACGTCG ((((((((..(((((((((+)))))))))..))))))))                No
4  CGACGTGCGACATGTGCTG+CAGCACATAGAGCACGTCG ((((((((...((((((((+))))))))...))))))))                No
5  CGACGTGCGGTATGTGCTG+CAGCACATCGAGCACGTCG ((((((((...((((((((+))))))))...))))))))                No
6  CGACGTGCCCGATGTGCTG+CAGCACATTGAGCACGTCG ((((((((.(.((((((((+)))))))).).))))))))                No

(Q) Strictly below 50 °C in Tm? CGACGTGCGCCATGTGCTG+CAGCACATCGTGCACGTCG ((((((((.(.((((((((+)))))))).).))))))))
(A) Yes

* * *

- assay_text: melting temperature; melt of duplexes
- test_settings: sodium 0.0675 M; strand 1 µM
Assign labels as follows, please: satisfied for Tm below 50 °C; not satisfied for Tm equal to or exceeding 50 °C.

Consider the worked cases shown below.
> print(dat)
                                  substance  class.assignment
1  CGACGTGCGTCATGTGCTG+CAGCACATCGCGCACGTCG (((((((((..((((((((+))))))))..)))))))))     not satisfied
2  CGACGTGCTTCATGTGCTG+CAGCACATTCGGCACGTCG ((((((((...((((((((+))))))))...))))))))         satisfied
3  CGACGTGCAAAATGTGCTG+CAGCACATCCCGCACGTCG ((((((((...((((((((+))))))))...))))))))         satisfied
4  CGACGTGCCCTATGTGCTG+CAGCACATACCGCACGTCG ((((((((..(((((((((+)))))))))..))))))))         satisfied
5  CGACGTGCCCCATGTGCTG+CAGCACATAAAGCACGTCG ((((((((...((((((((+))))))))...))))))))         satisfied
6  CGACGTGCACGATGTGCTG+CAGCACATTCCGCACGTCG ((((((((...((((((((+))))))))...))))))))         satisfied
7  CGACGTGCTCGATGTGCTG+CAGCACATCTTGCACGTCG ((((((((..(((((((((+)))))))))..))))))))     not satisfied
8  CGACGTGCGGTATGTGCTG+CAGCACATTGCGCACGTCG (((((((((..((((((((+))))))))..)))))))))     not satisfied

(Q) Is Tm strictly under 50 °C for the entry CGACGTGCGGCATGTGCTG+CAGCACATATAGCACGTCG ((((((((...((((((((+))))))))...)))))))) ?
(A) not satisfied

(Q) Strictly below 50 °C: is that where Tm of CGACGTGCGTCATGTGCTG+CAGCACATACAGCACGTCG ((((((((...((((((((+))))))))...)))))))) sits?
(A) not satisfied

* * *

- assay_text: melting temperature; melt of duplexes
- test_settings: sodium 0.0675 M; strand 1 µM
Tm listing for selected substances.
Respond numerically; units are °C and should not be typed.

# annotated cases, reported Tm shown
> print(dat)
                                  substance  readout.name  assay.value
1  CGACGTGCGTGATGTGCTG+CAGCACATCGTGCACGTCG ((((((((..(((((((((+)))))))))..))))))))            Tm         54.5
2  CGACGTGCGACATGTGCTG+CAGCACATGAGGCACGTCG ((((((((..(((((((((+)))))))))..))))))))            Tm         55.3
3  CGACGTGCGACATGTGCTG+CAGCACATGTCGCACGTCG (((((((((((((((((((+)))))))))))))))))))            Tm         67.2
4  CGACGTGCTGGATGTGCTG+CAGCACATTTAGCACGTCG (((((((((..((((((((+))))))))..)))))))))            Tm           54
5  CGACGTGCGTCATGTGCTG+CAGCACATGAGGCACGTCG ((((((((.((((((((((+)))))))))).))))))))            Tm         60.7
6  CGACGTGCACTATGTGCTG+CAGCACATTCAGCACGTCG ((((((((...((((((((+))))))))...))))))))            Tm         43.4

// sample CGACGTGCAATATGTGCTG+CAGCACATTACGCACGTCG ((((((((...((((((((+))))))))...)))))))) , its Tm was 49.7

Tm reading for CGACGTGCTCAATGTGCTG+CAGCACATAGGGCACGTCG ((((((((.(.((((((((+)))))))).).)))))))) : 52.8

Summary for this substance, CGACGTGCCGTATGTGCTG+CAGCACATATTGCACGTCG ((((((((..(((((((((+)))))))))..)))))))) : Tm is 51.5

Looking up CGACGTGCCGCATGTGCTG+CAGCACATAACGCACGTCG ((((((((...((((((((+))))))))...)))))))) , I see its Tm listed as 48.3

Lookup result for CGACGTGCTGTATGTGCTG+CAGCACATATCGCACGTCG ((((((((..(((((((((+)))))))))..)))))))) ; measured Tm: 50.9

// Tm lookup, substance = CGACGTGCTATATGTGCTG+CAGCACATAAGGCACGTCG ((((((((..(((((((((+)))))))))..)))))))) , result: 52.5

Item: CGACGTGCTATATGTGCTG+CAGCACATGTCGCACGTCG ((((((((.(.((((((((+)))))))).).)))))))) | Tm: 51.4

Per the records, this substance ( CGACGTGCCCGATGTGCTG+CAGCACATGCCGCACGTCG ((((((((...((((((((+))))))))...)))))))) ) has Tm equal to 48.1

Entry CGACGTGCGACATGTGCTG+CAGCACATAACGCACGTCG (((((((((..((((((((+))))))))..))))))))) — recorded Tm = 54.2

* * *

- assay_text: melting temperature; melt of duplexes
- test_settings: sodium 0.0675 M; strand 1 µM
Entry flag: satisfied if Tm reaches 50 °C; not satisfied if it does not.

# count of solved cases: 3
> print(dat)
                                  substance  class.assignment
1  CGACGTGCCTCATGTGCTG+CAGCACATTCGGCACGTCG (((((((((..((((((((+))))))))..)))))))))         satisfied
2  CGACGTGCGGGATGTGCTG+CAGCACATCCGGCACGTCG ((((((((.((((((((((+)))))))))).))))))))         satisfied
3  CGACGTGCCTTATGTGCTG+CAGCACATCTCGCACGTCG ((((((((...((((((((+))))))))...))))))))     not satisfied

(Q) Form field: Tm at least 50 °C? Entry: CGACGTGCTAAATGTGCTG+CAGCACATACAGCACGTCG (((((((((..((((((((+))))))))..)))))))))
(A) satisfied

(Q) # check: Tm of CGACGTGCATAATGTGCTG+CAGCACATGGTGCACGTCG (((((((((..((((((((+))))))))..))))))))) is greater than or equal to 50 °C
(A) satisfied

(Q) Kindly determine if Tm recorded for CGACGTGCTACATGTGCTG+CAGCACATGCAGCACGTCG (((((((((.(((((((((+))))))))).))))))))) is above or exactly 50 °C.
(A) satisfied

Taken from the array DNA melting data of Ke et al..
